Target: PPARγ (Homo sapiens)
Sequence (P37231 238-505 limits assumed): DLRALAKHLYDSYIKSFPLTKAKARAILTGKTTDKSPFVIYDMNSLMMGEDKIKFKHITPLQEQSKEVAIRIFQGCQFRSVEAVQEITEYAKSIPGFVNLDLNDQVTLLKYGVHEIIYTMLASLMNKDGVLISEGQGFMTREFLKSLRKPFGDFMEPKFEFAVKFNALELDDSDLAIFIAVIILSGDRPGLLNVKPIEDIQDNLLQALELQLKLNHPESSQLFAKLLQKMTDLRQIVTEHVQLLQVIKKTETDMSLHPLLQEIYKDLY
Test: Cotransfection (CTF) / response element assays, PPARγ in CV-1 cells
Format: cell-based
Design: Eff (γ); HD Eff; other: response element assay, HD PPRE reporter; LPL Eff; other: response element assay, LPL PPRE reporter; ApoA1 Eff; other: response element assay, ApoA1; PPARγ or PPARα are constitutively expressed using plasmids containing the cytomegalovirus promoter
Conditions: response element assay, HD PPRE reporter; read-out: HD EC50
MEASURED_PARAMETER: EC50 (µM)

1. CCOc1ccc(CCNC(=O)COc2ccc(C[C@H](OC)C(=O)O)cc2)cc1: 1.04
2. COc1ccc(CCNC(=O)COc2ccc(C[C@H](OC)C(=O)O)cc2)cc1: 1.14
